- tested on: Bcl-xL (Homo sapiens, UniProt Q07817)
- Construct: Measured levels of Bcl-xL protein of HCT116 cells treated with the tested compounds; host or cells: HCT116
- Sequence (Q07817 whole entry): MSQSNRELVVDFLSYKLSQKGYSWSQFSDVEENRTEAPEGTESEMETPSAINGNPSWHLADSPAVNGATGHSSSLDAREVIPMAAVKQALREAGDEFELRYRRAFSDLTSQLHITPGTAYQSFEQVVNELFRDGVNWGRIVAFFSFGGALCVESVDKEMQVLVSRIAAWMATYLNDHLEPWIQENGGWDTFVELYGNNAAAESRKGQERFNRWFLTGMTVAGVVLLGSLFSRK
- experiment: HCT116 Bcl-xL degradation, capillary-based immunoassay (WES)
- Assay type: cell-based
- experimental context: HCT-116; HCT116, 100 nM, 24 h; % of untreated cells
Consider the following compounds; for each one, report its remaining activity at 0.1 µM.
Please state the figure in %; there is no need to write the unit.

Which remaining activity at 0.1 µM value is on record for `Cc1ncsc1-c1ccc([C@H](C)NC(=O)[C@@H]2C[C@@H](O)CN2C(=O)[C@@H](NC(=O)CCCCCCCCCN(C)CCOC23CC4(C)CC(C)(CC(Cn5ncc(-c6ccc(N7CCCc8c7nnc(Nc7nc9ccccc9s7)c8C)nc6C(=O)O)c5C)(C4)C2)C3)C(C)(C)C)cc1` ? 105

And CNCC#Cc1ccc(OCCCc2sc(N(CCCc3cn(CCOCCOCCOCCNC(=O)COc4cccc5c4C(=O)N(C4CCC(=O)NC4=O)C5=O)nn3)c3cc(C)c(Nc4nc5ccccc5s4)nn3)nc2C(=O)O)c(F)c1 (stereo not shown) ? 49

Field entry: `Cc1ncsc1-c1ccc([C@H](C)NC(=O)[C@@H]2C[C@@H](O)CN2C(=O)[C@@H](NC(=O)CCCCCCCN(C)CCOC23CC4(C)CC(C)(CC(Cn5ncc(-c6ccc(N7CCCc8c7nnc(Nc7nc9ccccc9s7)c8C)nc6C(=O)O)c5C)(C4)C2)C3)C(C)(C)C)cc1` 22

How about Cc1c(Nc2nc3ccccc3s2)nnc2c1CCCN2c1ccc(-c2cnn(CC34CC5(C)CC(C)(C3)CC(OCCN(C)CCOCCOCCOCCNc3cccc6c3C(=O)N(C3CCC(=O)NC3=O)C6=O)(C5)C4)c2C)c(C(=O)O)n1 (stereo not shown) ? 60

* * *

- Test system: MOLT-4 cells
- experiment: MOLT-4 cell viability, MTT assay
- Type: cell-based
- experimental context: Homo sapiens, MOLT-4, 48 h
I'd be grateful if you could share measured pIC50 for these entries.
Keep in mind that pIC50 stands for -log10 of concentration in molar terms.

Which value of pIC50 has been reported for Cc1ncsc1-c1ccc([C@H](C)NC(=O)C2CC(O)CN2C(=O)C(NC(=O)CCCCCCCCCCCN2CCN(CC#Cc3ccc(OCCCc4sc(N5CCCc6c5nnc(Nc5nc7ccccc7s5)c6C)nc4C(=O)O)c(F)c3)CC2)C(C)(C)C)cc1 (stereo in doubt) [Example 31] in the records? 8.09

And for Cc1c(Nc2nc3ccccc3s2)nnc2c1CCCN2c1ccc(-c2cnn(CC34CC5(C)CC(C)(C3)CC(OCCN(C)CCCCCCOc3ccc6c(c3)C(=O)N(C3CCC(=O)NC3=O)C6=O)(C5)C4)c2C)c(C(=O)O)n1 (centres unmarked) [Example 14] ? 8.94

* * *

- tested on: Bcl-xL (Homo sapiens, UniProt Q07817)
- Construct: Measured levels of Bcl-xL protein of HCT116 cells treated with the tested compounds; host or cells: HCT116
- experiment: HCT116 Bcl-xL degradation, capillary-based immunoassay (WES)
- Format: cell-based
- experimental context: HCT-116; HCT116, 100 nM, 24 h; % of untreated cells
Give remaining activity at 0.1 µM for every item shown.
# output: numeric value plus its unit

Quick one: remaining activity at 0.1 µM for Cc1ncsc1-c1ccc([C@H](C)NC(=O)[C@@H]2C[C@@H](O)CN2C(=O)[C@@H](NC(=O)CCCCCCCCCCCCCN(C)CCOC23CC4(C)CC(C)(CC(Cn5ncc(-c6ccc(N7CCCc8c7nnc(Nc7nc9ccccc9s7)c8C)nc6C(=O)O)c5C)(C4)C2)C3)C(C)(C)C)cc1 [Example 4] ? 14%

Please answer likewise for Cc1ncsc1-c1ccc(CNC(=O)[C@@H]2C[C@@H](O)CN2C(=O)[C@@H](NC(=O)CCCCC(=O)N2CCN(CC#Cc3ccc(OCCCc4sc(N5CCCc6c5nnc(Nc5nc7ccccc7s5)c6C)nc4C(=O)O)c(F)c3)CC2)C(C)(C)C)cc1 [Example 19] 88%

Entry to check: Cc1ncsc1-c1ccc([C@H](C)NC(=O)C2C[C@@H](O)CN2C(=O)C(NC(=O)CCCCCN(C)CCOC23CC4(C)CC(C)(CC(Cn5ncc(-c6ccc(N7CCCc8c7nnc(Nc7nc9ccccc9s7)c8C)nc6C(=O)O)c5C)(C4)C2)C3)C(C)(C)C)cc1 (stereo in doubt) [Example 8] 37%

Next molecule up: CNCC#Cc1ccc(OCCCc2sc(N(CCCc3cn(CCOCCOCCOCCOCCOCCC(=O)N[C@H](C(=O)N4C[C@H](O)C[C@H]4C(=O)NCc4ccc(-c5scnc5C)cc4)C(C)(C)C)nn3)c3cc(C)c(Nc4nc5ccccc5s4)nn3)nc2C(=O)O)c(F)c1 [Example 29] 67%

* * *

- Test system: MOLT-4 cells
- experiment: MOLT-4 cell viability, MTT assay
- Format: cell-based
- experimental context: Homo sapiens, MOLT-4, 48 h
- Protocol: The MTT colorimetric assay is based on the mitochondrial reduction of tetrazolium salt by living cells. The viable cell number is proportional to the production of formazan salts, which can be read spectrophotometrically at 540 nm. The CTG luminescent assay (CellTiter GLO, Promega) is based on a reagent which lyses cells and measures total adenosine triphosphate (ATP) content. […] IC50, were calculated using standard four-parametric curve fitting. […]
measurement kind: IC50 (nM)
Your answer should be a plain number; it is taken to be in nM.

For the compound `Cc1ncsc1-c1ccc([C@H](C)NC(=O)[C@@H]2C[C@@H](O)CN2C(=O)[C@@H](NC(=O)CCCCCCCCCCCN(C)CCOC23CC4(C)CC(C)(CC(Cn5ncc(-c6ccc(N7CCCc8c7nnc(Nc7nc9ccccc9s7)c8C)nc6C(=O)O)c5C)(C4)C2)C3)C(C)(C)C)cc1` , what IC50 is on record? 1.06

Thanks! And Cc1cc(N(CCCCCn2cc(COCCOCCOCC(=O)Nc3cccc4c3CN(C3CCC(=O)NC3=O)C4=O)nn2)c2ccc(-c3cnn(CC45CC6(C)CC(C)(C4)CC(OCCN(C)C)(C6)C5)c3C)c(C(=O)O)n2)nnc1Nc1nc2ccccc2s1 (stereo not shown) ? 8.63

Please do the same for Cc1cc(N(CCCCCn2cc(COCCOCCNC(=O)COc3cccc4c3C(=O)N(C3CCC(=O)NC3=O)C4=O)nn2)c2ccc(-c3cnn(CC45CC6(C)CC(C)(C4)CC(OCCN(C)C)(C6)C5)c3C)c(C(=O)O)n2)nnc1Nc1nc2ccccc2s1 (stereo not shown) as well. 156

Same again, this time with Cc1c(Nc2nc3ccccc3s2)nnc2c1CCCN2c1ccc(-c2cnn(CC34CC5(C)CC(C)(C3)CC(OCCN(C)CCCCCCCCOc3ccc6c(c3)C(=O)N(C3CCC(=O)NC3=O)C6=O)(C5)C4)c2C)c(C(=O)O)n1 (stereo not shown) 0.398

* * *

- System: MOLT-4 cells
- experiment: MOLT-4 cell viability, MTT assay
- Format: cell-based
- experimental context: Homo sapiens, MOLT-4, 48 h
pIC50: −log10 of the molar value.
Decision: pIC50 >= 8 yields Criterion met, all other cases yield Criterion not met.

Is the recorded value of pIC50 equal to or greater than 8 for this compound? `Cc1ncsc1-c1ccc([C@H](C)NC(=O)[C@@H]2C[C@@H](O)CN2C(=O)[C@@H](NC(=O)CCCCCCCCCCN(C)CCOC23CC4(C)CC(C)(CC(Cn5ncc(-c6ccc(N7CCCc8c7nnc(Nc7nc9ccccc9s7)c8C)nc6C(=O)O)c5C)(C4)C2)C3)C(C)(C)C)cc1` Criterion met

Also `CNCC#Cc1ccc(OCCCc2sc(N(CCCc3cn(CCOCCOCCOCCOCCOCCC(=O)N[C@H](C(=O)N4C[C@H](O)C[C@H]4C(=O)NCc4ccc(-c5scnc5C)cc4)C(C)(C)C)nn3)c3cc(C)c(Nc4nc5ccccc5s4)nn3)nc2C(=O)O)c(F)c1` ? Criterion not met

Item: `Cc1ncsc1-c1ccc(CNC(=O)[C@@H]2C[C@@H](O)CN2C(=O)[C@@H](NC(=O)CCCCCCC(=O)N2CCN(CC#Cc3ccc(OCCCc4sc(N5CCCc6c5nnc(Nc5nc7ccccc7s5)c6C)nc4C(=O)O)c(F)c3)CC2)C(C)(C)C)cc1` Criterion met

And the next one, Cc1c(Nc2nc3ccccc3s2)nnc2c1CCCN2c1nc(C(=O)O)c(CCCOc2ccc(C#CCN3CCN(C(=O)CCCCCCC(=O)NCCOCCNC(=O)COc4cccc5c4C(=O)N(C4CCC(=O)NC4=O)C5=O)CC3)cc2F)s1 (stereo not drawn) ? Criterion met

Likewise for `Cc1ncsc1-c1ccc([C@H](C)NC(=O)[C@@H]2C[C@@H](O)CN2C(=O)[C@@H](NC(=O)CCCCCCCCCCCCN(C)CCOC23CC4(C)CC(C)(CC(Cn5ncc(-c6ccc(N7CCCc8c7nnc(Nc7nc9ccccc9s7)c8C)nc6C(=O)O)c5C)(C4)C2)C3)C(C)(C)C)cc1` ? Criterion met

For Cc1cc(N(CCCCCn2cc(CCCCCCCNC(=O)COc3cccc4c3C(=O)N(C3CCC(=O)NC3=O)C4=O)nn2)c2ccc(-c3cnn(CC45CC6(C)CC(C)(C4)CC(OCCN(C)C)(C6)C5)c3C)c(C(=O)O)n2)nnc1Nc1nc2ccccc2s1 (stereo not drawn) then? Criterion not met

Same thing, different compound: Cc1cc(N(CCCCCn2cc(CCCCCCCNc3cccc4c3C(=O)N(C3CCC(=O)NC3=O)C4=O)nn2)c2ccc(-c3cnn(CC45CC6(C)CC(C)(C4)CC(OCCN(C)C)(C6)C5)c3C)c(C(=O)O)n2)nnc1Nc1nc2ccccc2s1 (stereo not drawn) Criterion not met

Next compound up: Cc1ncsc1-c1ccc([C@H](C)NC(=O)C2C[C@@H](O)CN2C(=O)C(NC(=O)CCCCCC(=O)N2CCN(CC#Cc3ccc(OCCCc4sc(N5CCCc6c5nnc(Nc5nc7ccccc7s5)c6C)nc4C(=O)O)c(F)c3)CC2)C(C)(C)C)cc1 (stereo in doubt) Criterion met

# credit: patent US20240376094A2
